Taken from the nanobody polyreactivity screen of Harvey et al. (2022).

Assay: yeast display, Sf9 membrane polyspecificity reagent, FACS + sequencing; frameworks hold sequencing errors
Measurement type: polyreactivity (PSR sort gate)

INSERT INTO assay_data (ordered_residues, value_measured) VALUES
  ('QFQLVESGGGLVQAGGSLRLSCAASGFIFGYNAMGWYRQAPGKERELVAPITYNGASTNYADSVKGRFTISRDNAKNTVYLQMNSLKPEDTAVYYCAADYGPYDPEDDWGQGTQVTVSS', 'low polyreactivity'),
  ('QVQLVESGGGLVQAGGSLRLSCAASGSIFEQNAMGWYRQAPGKERELVAAITWSGDSTYYADSVKGRFTISRDNAKNTVYLQMNSLKPEDTAVYYCAKEFGGTKRYGWYNYWGQGTQVTVSS', 'low polyreactivity');

###

Assay: yeast display, Sf9 membrane polyspecificity reagent, FACS + sequencing; frameworks hold sequencing errors
Measurement type: polyreactivity (PSR sort gate)

Record excerpt, results attached:
INSERT INTO results (ordered_residues, value_measured) VALUES
  ('QVQLVESGGGLVQAGGSLRLSCAASGSTFYHNAMGWYRPAPGKERELVAAISRADVSTYYADSVKGRFTISRDNAKNTVYLQMNSLKPEDTAVYFGAAYWYGSQYKWRYDYWGQGTQVTVSS', 'low polyreactivity'),
  ('QVQLVESGGGLVQAGGSLRLSCAASGLIFQHNAMGWYRQAPGKERELVAAISRSAGSTYYADSVKGRFTISRDNAKNTVYLQMNSLKPEDTAVYYCAKRPTPTSKYDTVRYGYWGQGTQVTVSS', 'low polyreactivity'),
  ('QVQLVESGGGLVQAGGSLRLSCAASGSTFTTNAMGWYRQAPGKEREFVAAITRSSGSTYYADSVKGRFTISRDNAKNTVYLQMNSLKPEDTAVYYCAAAYRQNPSQSKSRFGYWGQGTQVTVSS', 'high polyreactivity'),
  ('QVQLVESGGGLVQAGGSLRLSCAASGRIFDGNAMGWYRQAPGKERELVAAISRIGGTYYADSVKGRFTISRDNAKNTVYLQMNSLKPEDTAVYYCAADPSSVGYHVEYDYWGQGTQVTVSS', 'low polyreactivity');

// lookup polyreactivity (PSR sort gate) for `QVQLVESGGGLVQAGGSLRLSCAASGFSFATYAMGWYRQAPGKERELVAAISSTGGRTYYAVSVKGRFTISRDNAKNNVYLQMNSLKPEDTAVYYCAADWRVTYDYWGQGTQVTVSS`
high polyreactivity

###

Experiment: yeast display, Sf9 membrane polyspecificity reagent, FACS + sequencing; frameworks hold sequencing errors
Measurement type: polyreactivity (PSR sort gate)

Consider the following illustrative entries.
INSERT INTO assay_data (ordered_residues, value_measured) VALUES
  ('QVQLVESGGGLVQAGGSLRLSCAASGSTFRRNAMGWYRQAPGKERELVAAISRRGGSTYYADSVKGRFTISRDNAKNTVYLQMNSLKPEDTAVYYCAADNTQVRPKYDYWGQGTQVTVSS', 'high polyreactivity'),
  ('QVQLVESGGGLVQAGGSLRLSCAASGSTFNYYAMGWYRQAPGKERELVARISWSGSTYADSVKGRFTISRDNAKNTVYLQMNSLKPEDTAVYYCAAPYVQKSHRGMDYWGQGTQVTVSS', 'low polyreactivity'),
  ('QVQLVESGGGLVQAGGSLRLSCAASGSTFIRNAMGWYRQAPGKERELVAAISSSGGRTYYADSVKGRFTISRDNAKNTVYLQMNSLKPEDTAVYYCAARAVGAYYSSYSHGAGYYYWGQGTQLTVSS', 'high polyreactivity'),
  ('QVQLVESGGGLVQAGGSLRLSCAASGNIFIYNAMGWYRQAPGKERELVAAISVSGGDTYYADSVKGRFTISRDNAKNTVYLQMNSLKPEDTAVYYCAAEAEYIELDYWGQGTQVTVSS', 'low polyreactivity');

Could you tell me which polyreactivity (PSR sort gate) is on file for `QVQLVESGGGLVQAGGSLRLSCAASGFIFLFNAMGWYRQAPGKERELVATNSSGGSTYYADSVKGRFTISLDNAKNTVYLQMTSLKPEDTAVYYCNAGPARTVYAQSSYVLYDYWGQGTQVTVSS` ?
low polyreactivity
